Recorded values, source paper PMC10548220.

Target: T1, recombinant human TIGIT-Fc carrier-free protein (Homo sapiens (Human)., UniProt Q495A1)
T1 construct: T cell Ig and ITIM domain receptor (TIGIT), human; also called hTIGIT-Fc; recombinant hTIGIT; source: bought: Biolegend
T1 sequence (Q495A1 22-141): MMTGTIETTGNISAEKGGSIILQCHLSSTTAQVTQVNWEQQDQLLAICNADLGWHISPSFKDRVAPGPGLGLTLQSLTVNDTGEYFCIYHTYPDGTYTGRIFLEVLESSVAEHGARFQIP
Assay: SPR; Biacore T200; recombinant m/hTIGIT-Fc immobilised on a CM5 chip; Nbs injected, eight two-fold dilutions from 200 nM, 10 µl/min, 25°C; HBS pH 7.4 (0.01 M HEPES, 0.15 M NaCl, 3 mM EDTA, 0.005% Tween 20); fit 1:1 binding with drift and RI2
Conditions: both partners purified
pKd: −log10 of the molar value.

{"binder": "anti-hTIGIT nanobody 16925 (VHH, Cloned into pHen6 after PCR with primers A6E and PMCF; labelled with 99mTc on the His6 tag for the in vivo work; also called lead hTIGIT Nb; source: E. coli WK6, periplasmic extract, purified (Ni-NTA, SEC); not shown: His6, C-terminal, kept) VHH: QVQLQESGGGLVQAGGSLRLSCAASSISSINAMGWYRQPPGKQRELVARITFGHSTNYADSVKGRFTISRDNAKSTVYLQMNSLKPEDTAVYYCNADLLLNTQAIRAWGQGTQVTVSS", "pKd": 8.70}
{"binder": "anti-hTIGIT nanobody 16920 (VHH, Cloned into pHen6 after PCR with primers A6E and PMCF; source: E. coli WK6, periplasmic extract, purified (Ni-NTA, SEC); not shown: His6, C-terminal, kept) VHH: QVQLQESGGGFVQAGGSLRLSCAASSISSIYAMDWYRQAPGKQREFVAGITSGGTTNYGSTVKGRFTISRDESKNTVDLQMNSLKPEDSAVYVCRATISWKIYSGQGTQVTVSS", "pKd": 9.12}
{"binder": "anti-hTIGIT nanobody 17010 (VHH, Cloned into pHen6 after PCR with primers A6E and PMCF; also called Nb 17010; source: E. coli WK6, periplasmic extract, purified (Ni-NTA, SEC); not shown: His6, C-terminal, kept) VHH: QVQLQESGGGSVQTGGSLRLSCAASNGFSINAMGWYRQSPGKQRELVARITSGSSTNYTNYADSVKGRFTISRDNAKNTGYLEMNLLKPEDTAVYYCHADVLLGGLQGLIQRFWGQGTQVTVSS", "pKd": 9.46}
{"binder": "single-chain variable fragment derived from the monoclonal antibody Vibostolimab (scFv, V domains shown, VH of the mAb Vibostolimab (Merck); (G4S)3 linker, written out from the printed formula; VL of the mAb Vibostolimab (Merck); Cloned into pHen6 by Gibson assembly; also called scFv Vibo; Vibo scFv; source: E. coli WK6, periplasmic extract, purified (Ni-NTA, SEC), produced in the same way as the Nbs; not shown: His6, C-terminal, kept) VH: EVQLVQSGAEVKKPGSSVKVSCKASGYTFSSYVMHWVRQAPGQGLEWIGYIDPYNDGAKYAQKFQGRVTLTSDKSTSTAYMELSSLRSEDTAVYYCARGGPYGWYFDVWGQGTTVTVSS VL: DIQMTQSPSSLSASVGDRVTITCRASEHIYSYLSWYQQKPGKVPKLLIYNAKTLAEGVPSRFSGSGSGTDFTLTISSLQPEDVATYYCQHHFGSPLTFGQGTRLEIK", "pKd": 9.00}
{"binder": "anti-hTIGIT nanobody 17018 (VHH, Cloned into pHen6 after PCR with primers A6E and PMCF; also called Nb 17018; source: E. coli WK6, periplasmic extract, purified (Ni-NTA, SEC); not shown: His6, C-terminal, kept) VHH: QVQLQESGGGLVQAGGSLRLSCTASSIFSINAMGWYRQTPGKQRELVARITNGSSTNYADSVKGRFTISRDNAKNTVYLQMNSLKPEDTAVYYCHTDLLLEVGAMRYWGQGTQVTVSS", "pKd": 9.33}
{"binder": "anti-hTIGIT nanobody 17037 (VHH, Cloned into pHen6 after PCR with primers A6E and PMCF; also called Nb 17037; source: E. coli WK6, periplasmic extract, purified (Ni-NTA, SEC); not shown: His6, C-terminal, kept) VHH: QVQLQESGGGLVQAGGSLRLSCAASSTLSIDDMGWYRQAPEKHREFVATISRGGSTNYAASVKGRFTISRDNAKNTVFLQMNNLKSEDTAVYYCRATSTWRYYWAQGTQVTVSS", "pKd": 9.94}
